# Tested on: SF-539 CNS
# Assay Overview: NCI-60 one-dose screen, 48 h (100 = growth as untreated, 0 = no growth, -100 = all killed)
# Condition Label: 10 µM unless noted
Compounds without any hit were thinned out: in the full panel of roughly 83,000, 20% have a hit.
Test Readout: growth (%)
Response body: numeric value in %, unit text excluded.

Some solved cases for reference:
So what does the record say about growth for Cc1ccc(C23CCC(=O)N2CCc2cncn23)cc1 (stereo unspecified) ?
101

Entry OC1CSSC1Cn1cnc2c(Nc3ccc(F)c(Cl)c3)ncnc21 (stereo unspecified) : reported growth = ?
93.2

Given "NC(=N\N=C/c1ccc(Cl)cc1Cl)/C(N)=N\N=C/c1ccc(Cl)cc1Cl" , state its recorded growth.
43.5

Pending compound:
I would be grateful if you could share the reported growth for "Cc1ccc(Nc2oc(-c3ccccc3)nc2[P+](c2ccccc2)(c2ccccc2)c2ccccc2)cc1" .
-60.7

###

# System: OVCAR-5 ovarian
# Assay Overview: NCI-60 one-dose screen, 48 h
# Condition Label: 10 µM unless noted
This is part of a sample that, as a whole, favours compounds with a hit. Of some 83,000 tested, about 20% had one in any assay. The source made the active and inactive calls. How the source made its calls: active means growth percent below 10; inactive means the rest.
Please answer using one outcome listed in t = active, f = inactive

# lookup: test call for COc1cccc(C2C3=C(COC3=O)N(CCO)c3cc4c(cc32)OCCO4)c1 (stereo not given)
f

Write down the call the test reported for this compound. Item: "CCCCCCCCCCCCCC[n+]1ccc2c(C)c3c(c(C)c2c1)c1cc(O)ccc1n3CC"
t

Which outcome was entered for the compound "CN(C)CCOc1ccc(/C(=C(/CCCCCCCCCC[P+](c2ccccc2)(c2ccccc2)c2ccccc2)c2ccccc2)c2ccccc2)cc1" in this test?
t

Can you look up the reported call for Cc1[nH]c(C2CC(c3ccc(C(F)(F)F)c(F)c3)=NN2C)c(C)c1C(=O)NCC(F)(F)F (stereo not given) for me?
f

Record request — test call for Cc1c(C)c2c(c(C)c1OC(=O)CCC(=O)[O-])CCC(C)(CCCCCCCCCCC[P+](c1ccccc1)(c1ccccc1)c1ccccc1)O2 (stereo not given)
f

Tell me the assay call for "Nc1ncc(-c2ccc3ncnc(N4CCc5ccc(Cl)cc54)c3c2)cn1" please.
t

What was the test verdict on "COc1cccc(CNc2nnc(C)c(C)n2)c1O" ?
f

Tell me the assay call for "c1ccc2c(-c3cnn4cc(-c5ccc(N6CCNCC6)cc5)cnc34)ccnc2c1" please.
t

Hey, what did the test say about "COc1cccc2cc(N(C)c3nc(C)nc4c3CCC4)ccc12" ?
f

What did this assay record as the result for "O=c1c(Cc2ccc(F)cc2)cc(-c2ccccc2)nn1C/C(=N/O)c1ccccc1" ?
f

Further cases:
What did the test return for "COc1ccc(-c2cn(Cc3ccc4c(Br)cc(Br)c(O)c4n3)nn2)cc1" ?
f

Recorded call for "CNC(=O)c1cc(Oc2cccc3nc(NC(=O)Nc4ccc(F)cc4F)ccc23)ccn1" ?
f

Kindly provide the recorded test outcome for the following compound: CNC1=C([N+](=O)[O-])C(c2ccc(OC)cc2)C(C#N)=C(c2ccc[nH]2)O1 (stereo not given)
f

Could you please tell me the result logged for "CN1CCN(Cc2ccc(NC(=O)c3cncc(C#Cc4cnc(N)c5ccc(C#N)cc45)c3)cc2C(F)(F)F)CC1" in this assay?
t

Assay outcome for "CC(C)CCc1nc2ccc(NCc3ccc(OCCN4CCC(C)CC4)cc3)cc2[nH]1" : what was it?
f

Any idea what this test logged for "O=C(Nc1cccc(Cl)c1)Oc1c(Cl)c(Cl)c(Cl)c(Cl)c1Cl" ?
f

Could you kindly confirm the outcome this assay logged for "CC(=O)CC(=O)c1ccccc1.[Cu+2]" ?
f

Hi team, can someone confirm the assay call for "O=C(O)c1nn(-c2ccc(Cl)cc2)nc1N1CCCC1" ?
f

// return assay outcome for CN1C(=O)N(C)C2C1NN=c1s/c(=C\c3ccccc3F)c(=O)n12 (stereo not given)
f

Entry "C=CCn1c(SCC(=O)Nc2ccc(C(=O)/C=C/c3ccc(Cl)cc3)cc2)nnc1-c1ccc(Cl)c(Cl)c1" : call = ?
f
